The measurements presented in this section are drawn from patent US20140066368A1.

# system: amylin receptor (membrane-bound, rat basal forebrain membranes containing the nucleus accumbens and surrounding regions) (rat)
# assay.remarks: competition with ^125I Bolton-Hunter amylin on rat basal forebrain membranes, filtration
pIC50: −log10 of the molar value. Bridge positions count the residues as written; N and C are the ends. Ends that are not written are not given here.
measurement.kind: pIC50

KCNTATCATQRLANFLVRSSNNFGPILPSTNVGSNTY [^18Arg^25,28Pro-h-Amylin] : 10.49
KCNTATCATQRLANFLVHSSNNFGPVLPPTNVGSNTY [^25Pro^26Val^28,29Pro-h-Amylin] : 10.74
CNTATCATQRLANFLVHSSNNFGPILPPTNVGSNTY [des-^1Lys^25,28,29Pro-h-Amylin] : 10.85

[I] CNTATCATQRLANFLVHSSNNFGPILPSTNVGSNTY [des-^1Lys^25,28Pro-h-Amylin]
[II] KCNTATCATQRLANFLVRSSNNFGPILPPTNVGSNTY [^18Arg^25,28,29Pro-h-Amylin]
[III] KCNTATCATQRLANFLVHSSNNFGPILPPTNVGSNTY-NH2 (disulfide 2-7) [^25,28,29Pro-h-Amylin]
Incoming: Rank order required: pIC50, descending. # answer = labels listed in requested order
Outgoing: III, II, I
(III: 11.00, II: 10.68, I: 10.07)
